System under test: 17β-hydroxysteroid dehydrogenase type 2 (17β-HSD type 2) (Homo sapiens, UniProt P37059)
Construct: expressed in transfected cells; host or cells: MCF-7
Sequence (P37059 whole entry): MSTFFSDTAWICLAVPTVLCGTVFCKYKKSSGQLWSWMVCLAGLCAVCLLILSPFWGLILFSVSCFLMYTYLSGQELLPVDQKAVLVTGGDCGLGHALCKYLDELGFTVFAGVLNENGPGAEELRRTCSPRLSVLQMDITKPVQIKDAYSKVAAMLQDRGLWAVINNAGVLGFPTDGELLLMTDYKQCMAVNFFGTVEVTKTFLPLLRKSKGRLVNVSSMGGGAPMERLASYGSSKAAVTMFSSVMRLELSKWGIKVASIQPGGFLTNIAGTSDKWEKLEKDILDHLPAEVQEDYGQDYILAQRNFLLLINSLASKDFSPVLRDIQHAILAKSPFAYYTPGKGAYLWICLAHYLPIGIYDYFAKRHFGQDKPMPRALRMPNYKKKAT
Method summary: Inhibition of 17β-HSD type 2 in MCF-7 cells stably expressing the isoenzyme (tritium labeled estradiol conversion, HPLC)
Type: cell-based
Assay context: 1 μM test compound; MCF-7 cells expressing 17β-HSD type 2; 2 nM tritium labeled estradiol
Reported % Inhibition HSD2 1 μM values for a set of compounds

Compound	System under test	% Inhibition HSD2 1 μM
O=c1c2c(nc(CCc3ccccc3)n1CCc1cccs1)sc1c(O)cccc12 [No. 639]	17β-hydroxysteroid dehydrogenase type 2 (17β-HSD type 2) (Homo sapiens, UniProt P37059)	18.2%
CCCCC(CC)c1nc2sc3c(O)cccc3c2c(=O)n1CCCC (stereo not shown) [No. 635]	17β-hydroxysteroid dehydrogenase type 2 (17β-HSD type 2) (Homo sapiens, UniProt P37059)	15.4%
O=c1c2c(nc(CCc3ccccc3)n1Cc1ccccc1)sc1c(O)cccc12 [No. 659]	17β-hydroxysteroid dehydrogenase type 2 (17β-HSD type 2) (Homo sapiens, UniProt P37059)	16.3%
O=c1c2c(nc(-c3ccc(F)cc3F)n1CCc1ccccc1)sc1c(O)cccc12 [No. 630]	17β-hydroxysteroid dehydrogenase type 2 (17β-HSD type 2) (Homo sapiens, UniProt P37059)	24.7%
CC(C)=Cc1nc2sc3c(O)cccc3c2c(=O)n1Cc1ccccc1 [No. 667]	17β-hydroxysteroid dehydrogenase type 2 (17β-HSD type 2) (Homo sapiens, UniProt P37059)	20.9%
CCCCC(CC)c1nc2sc3c(O)cccc3c2c(=O)n1Cc1ccccc1 (stereo not shown) [No. 663]	17β-hydroxysteroid dehydrogenase type 2 (17β-HSD type 2) (Homo sapiens, UniProt P37059)	37.4%
O=c1c2c(nc(CCC3CCCC3)n1CCc1ccccc1)sc1c(O)cccc12 [No. 627]	17β-hydroxysteroid dehydrogenase type 2 (17β-HSD type 2) (Homo sapiens, UniProt P37059)	27.1%
CCCCn1c(CCC2CCCC2)nc2sc3c(O)cccc3c2c1=O [No. 634]	17β-hydroxysteroid dehydrogenase type 2 (17β-HSD type 2) (Homo sapiens, UniProt P37059)	16.8%
O=c1c2c(nc(Cc3ccccc3)n1CCc1cccs1)sc1c(O)cccc12 [No. 641]	17β-hydroxysteroid dehydrogenase type 2 (17β-HSD type 2) (Homo sapiens, UniProt P37059)	10.5%
CCCCC(CC)c1nc2sc3c(O)cccc3c2c(=O)n1CCc1cccs1 (stereo not shown) [No. 644]	17β-hydroxysteroid dehydrogenase type 2 (17β-HSD type 2) (Homo sapiens, UniProt P37059)	27.6%
O=c1c2c(nc(Cc3ccccc3)n1Cc1ccccc1)sc1c(O)cccc12 [No. 660]	17β-hydroxysteroid dehydrogenase type 2 (17β-HSD type 2) (Homo sapiens, UniProt P37059)	19.8%
COCc1nc2sc3c(O)cccc3c2c(=O)n1CCc1ccccc1 [No. 629]	17β-hydroxysteroid dehydrogenase type 2 (17β-HSD type 2) (Homo sapiens, UniProt P37059)	39.1%
COCc1nc2sc3c(O)cccc3c2c(=O)n1CCc1cccs1 [No. 645]	17β-hydroxysteroid dehydrogenase type 2 (17β-HSD type 2) (Homo sapiens, UniProt P37059)	48.8%
O=c1c2c(nc(CCC3CCCC3)n1CCc1cccs1)sc1c(O)cccc12 [No. 643]	17β-hydroxysteroid dehydrogenase type 2 (17β-HSD type 2) (Homo sapiens, UniProt P37059)	20.1%
CCCCC(CC)c1nc2sc3c(O)cccc3c2c(=O)n1CCc1ccccc1 (stereo not shown) [No. 628]	17β-hydroxysteroid dehydrogenase type 2 (17β-HSD type 2) (Homo sapiens, UniProt P37059)	−0.9%
CC(C)=Cc1nc2sc3c(O)cccc3c2c(=O)n1CCc1cccs1 [No. 648]	17β-hydroxysteroid dehydrogenase type 2 (17β-HSD type 2) (Homo sapiens, UniProt P37059)	16.0%

---

System under test: 17β-hydroxysteroid dehydrogenase type 1 (17β-HSD type 1) (Homo sapiens, UniProt P14061)
Construct: expressed in transfected cells; host or cells: MCF-7
Sequence (P14061 whole entry): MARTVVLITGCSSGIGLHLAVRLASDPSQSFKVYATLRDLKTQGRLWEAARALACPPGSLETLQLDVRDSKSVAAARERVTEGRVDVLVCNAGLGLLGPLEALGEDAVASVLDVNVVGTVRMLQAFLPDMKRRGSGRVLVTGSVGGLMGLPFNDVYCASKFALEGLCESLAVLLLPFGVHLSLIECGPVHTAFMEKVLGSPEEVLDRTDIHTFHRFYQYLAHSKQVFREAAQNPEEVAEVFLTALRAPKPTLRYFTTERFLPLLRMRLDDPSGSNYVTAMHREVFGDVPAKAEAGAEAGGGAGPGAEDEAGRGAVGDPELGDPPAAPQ
Method summary: Inhibition of 17β-HSD type 1 in MCF-7 cells stably expressing the isoenzyme (tritium labeled estrone conversion, HPLC)
Type: cell-based
Assay context: MCF7; 10 μM test compound; MCF-7 cells expressing 17β-HSD type 1; 2 nM tritium labeled estrone; read-out: % Inhibition HSD1 10 μM
Metric name: inhibition at 10 µM (%)

Compound	Unit label	Experimental value
O=C1c2sc3nc(-c4ccc(Br)s4)n(Cc4ccccc4)c(=O)c3c2CCC1Br (stereo not drawn)	%	7.8
O=Cc1nc2c(c(=O)n1Cc1ccccc1)C1=C(CCCC1)S2(=O)=O	%	67.3
COc1ccc(-c2nc3sc4c(Oc5ccccc5)c(C)ccc4c3c(=O)n2Cc2ccccc2)cc1	%	-4.4
O=C(OCCn1c(-c2cccs2)nc2sc3c(c2c1=O)CCCC3=O)c1cccs1	%	39.4
COc1cccc(-c2nc3sc4c(OC(C)=O)cccc4c3c(=O)n2Cc2ccccc2)c1	%	22.6
O=C(OCCn1c(-c2cccs2)nc2sc3c(c2c1=O)CCC(Br)(Br)C3=O)c1cccs1	%	15.2
COc1cc(-c2nc3sc4c(c3c(=O)n2Cc2ccccc2)CC(C)CC4)cc(OC)c1OC (stereo not drawn)	%	5.5
CCCc1nc2sc3c(c2c(=O)n1Cc1ccc(Br)o1)CCC(Br)C3=O (stereo not drawn)	%	70.6
O=c1c2c(nc(-c3ccc(Br)s3)n1Cc1ccccc1)sc1c(O)cccc12	%	21.5
COc1cc(-c2nc3sc4c(OC)cccc4c3c(=O)n2CC(C)C)cc(OC)c1OC	%	8.5
CCCc1nc2sc3c(OC(C)=O)cccc3c2c(=O)n1Cc1cc(Br)ccc1OC	%	64.5
COc1cc(-c2nc3sc4c(O)c(Br)ccc4c3c(=O)n2Cc2ccccc2)c(Br)c(OC)c1OC	%	11.6
COc1cc(-c2nc3sc4c(c3c(=O)n2Cc2ccccc2)CCC(Cl)C4=O)c(Cl)c(OC)c1OC (stereo not drawn)	%	62.9
CCCc1nc2sc3c(OC(C)=O)cccc3c2c(=O)n1Cc1ccc(Br)o1	%	72.5
COc1cc(-c2nc3sc4c(c3c(=O)n2-c2ccccc2)CCCC4=O)cc(OC)c1OC	%	27.7
COc1cc(-c2nc3sc4c(c3c(=O)n2Cc2ccco2)CCCC4)cc(OC)c1OC	%	27.9
CCCCn1c(-c2cc(OC)c(OC)c(OC)c2)nc2sc3c(c2c1=O)CCCC3	%	40.1
COc1cccc(-c2nc3sc4c(c3c(=O)n2Cc2ccccc2)CCCC4)c1	%	28.5
COc1cccc(-c2nc3sc4c(c3c(=O)n2Cc2ccccc2)CCC(Br)(Br)C4=O)c1	%	16.8
O=C1c2sc3nc(-c4ccccc4)n(Cc4ccccc4)c(=O)c3c2CCC1Br (stereo not drawn)	%	54.9
Cc1nc2sc3c(c2c(=O)n1-c1ccccc1)CCCC3=O	%	13.8
CCSC1=C(C=O)CCc2c1sc1nc(-c3ccc(OC)cc3)n(Cc3ccccc3)c(=O)c21	%	33.5
O=c1c2c3c(sc2nc(CO)n1Cc1ccccc1)CCCC3	%	18
COCCn1c(-c2cc(OC)c(OC)c(OC)c2Br)nc2sc3c(c2c1=O)CCC(Br)C3=O (stereo not drawn)	%	56.9
O=C1c2sc3nc(-c4ccccc4)n(Cc4ccccc4)c(=O)c3c2CCC1(Br)Br	%	20.8
COc1cc(-c2nc3sc4c(O)cccc4c3c(=O)n2Cc2ccccc2)c(Br)c(OC)c1OC	%	86.2
COCCn1c(-c2cccs2)nc2sc3c(c2c1=O)CCCC3	%	12.2
COc1cc(-c2nc3sc4c(OC(C)=O)cccc4c3c(=O)n2Cc2ccccc2)c(Br)c(OC)c1OC	%	65.8
COc1cc(-c2nc3sc4c(c3c(=O)n2Cc2ccccc2)CCCC4)cc(OC)c1OC	%	21.1
COc1cc(-c2nc3sc4c(O)cccc4c3c(=O)n2Cc2ccccc2)c(Cl)c(OC)c1OC	%	73.3
CCCCn1c(-c2cc(OC)c(OC)c(OC)c2)nc2sc3c(O)c(Br)ccc3c2c1=O	%	24.7
CC(=O)OCc1nc2sc3c(c2c(=O)n1Cc1ccccc1)CCCC3	%	15.5
CCC(C)Cn1c(-c2cc(OC)c(OC)c(OC)c2)nc2sc3c(c2c1=O)CCC(Br)C3=O (stereo not drawn)	%	91.3
COCc1nc2sc3c(c2c(=O)n1Cc1ccccc1)CCCC3	%	32.3
CCCc1nc2sc3c(c2c(=O)n1Cc1ccc(Br)o1)CCC(Br)(Br)C3=O	%	42.6
CCCc1nc2sc3c(c2c(=O)n1Cc1ccccc1OC)CCCC3=O	%	59.6

---

System under test: 17β-hydroxysteroid dehydrogenase type 1 (17β-HSD type 1) (Homo sapiens)
Construct: expressed in transfected cells; host or cells: MCF-7
Method summary: Inhibition of 17β-HSD type 1 in MCF-7 cells stably expressing the isoenzyme (tritium labeled estrone conversion, HPLC)
Assay type: cell-based
Assay context: MCF7; 10 μM test compound; MCF-7 cells expressing 17β-HSD type 1; 2 nM tritium labeled estrone; read-out: % Inhibition HSD1 10 μM

Compound	inhibition at 10 µM
COc1cc(-c2nc3sc4c(OC)cccc4c3c(=O)n2Cc2ccccc2)cc(OC)c1OC	21.5%
COc1cc(-c2nc3sc4c(O)cccc4c3c(=O)n2CC(C)C)c(Br)c(OC)c1OC	62.2%
COc1ccc(-c2nc3sc4cc(C=O)ccc4c3c(=O)n2Cc2ccccc2)cc1	48.3%
COc1cc(-c2nc3sc4c(c3c(=O)n2CC(C)C)CCC(Br)C4=O)cc(OC)c1OC (stereo not drawn)	70.3%
Cc1nc2sc3c(c2c(=O)n1-c1ccccc1)CCC(Br)C3=O (stereo not drawn)	55.6%
COCc1nc2sc3c(Cl)c(C=O)c(C(=O)O)c(O)c3c2c(=O)n1Cc1ccccc1	28.6%
COc1cc(-c2nc3sc4c(O)cccc4c3c(=O)n2Cc2ccccc2)cc(OC)c1OC	71%
O=c1c2c(nc(-c3cccs3)n1Cc1ccccc1)sc1c(O)cccc12	29.6%
COc1cc(-c2nc3sc4c(c3c(=O)n2CC(C)C)CCC(Br)C4=O)c(Br)c(OC)c1OC (stereo not drawn)	41.4%
